A collection of compounds and their measured EC50
# Tested on: HIV-1 HBX2 (wild type)
# ASSAY NAME: High throughput cytopathic effect assay in MT-4 cells, wild type HIV-1
# Assay type: cell-based
# CONDITION DESCRIPTION: Human immunodeficiency virus 1, MT4, read-out: MT4 EC50 (nM) against w.t. assay 2
Give just the numeric value; nM need not be written.

Cc1cc(Nc2nc(N)c3cccc(-c4c(C)cc(/C=C/C#N)cc4C)c3n2)ncc1C#N    13.1
Cc1cc(/C=C/C#N)cc(C)c1-c1cc(F)cc2c(N)nc(Nc3cnc(C#N)cn3)nc12    2
Cc1cc(/C=C/C#N)cc(C)c1-c1cccc2c(N)nc(Nc3cnc(C#N)cn3)nc12    1.8
Cc1cc(/C=C/C#N)cc(C)c1-c1cccc2c(NCC3CC3)nc(Nc3ccc(C#N)cc3)nc12    82.6

Given the compound CCc1cc(/C=C/C#N)cc(CC)c1-c1cccc2c(N)nc(Nc3ccc(C#N)cc3)nc12 , what is its reported EC50? 16.8

What value of EC50 has been reported for the following compound? Cc1cc(/C=C/C#N)cc(C)c1-c1cccc2c(N)nc(Nc3ccc(C#N)cc3)nc12 3.6

Which EC50 value is on record for Cc1cc(/C=C/C#N)cc(C)c1-c1cc([N+](=O)[O-])cc2c(N)nc(Nc3ccc(C#N)cn3)nc12 ? 87.5

What value of EC50 has been reported for the following compound? Cc1cc(/C=C/C#N)cc(C)c1-c1cccc2cnc(Nc3ccc(C#N)cn3)nc12 4.3

Fill in: EC50 of N#C/C=C/c1cc(F)c(-c2cccc3c(N)nc(Nc4ccc(C#N)cc4)nc23)c(F)c1 is ___ 2.8

Entry under review: Cc1cc(/C=C/C#N)cc(C)c1-c1cccc2c(N)nc(Nc3ccc(C#N)nc3)nc12 . Reported EC50? 3.2

====

// reported EC50 for each item listed
# Test system: HIV-1 HBX2 (wild type)
# ASSAY NAME: High throughput cytopathic effect assay in MT-4 cells, wild type HIV-1
# Assay type: cell-based
# CONDITION DESCRIPTION: Human immunodeficiency virus 1, MT4, read-out: MT4 EC50 (nM) against w.t. assay 2
Report the value in nM with no unit label.

Below are worked cases with known answers.
COc1cc(/C=C/C#N)cc(OC)c1-c1cccc2cnc(Nc3ccc(C#N)cc3)nc12    1.5
Cc1cc(-c2c(C)cc(/C=C/C#N)cc2C)c2nc(Nc3ccc(C#N)cn3)nc(N)c2c1    10.6
Cc1cc(/C=C/C#N)cc(C)c1-c1cc(Br)cc2c(N)nc(Nc3ccc(C#N)cc3)nc12    28.3
Cc1cc(/C=C/C#N)cc(C)c1-c1cc(F)cc2c(N)nc(Nc3ccc(C#N)cn3)nc12    6.6
CNc1nc(Nc2ccc(C#N)cc2)nc2c(-c3c(C)cc(/C=C/C#N)cc3C)cccc12    13
Cc1cc(/C=C/C#N)cc(C)c1-c1cccc2c(NC(N)=O)nc(Nc3ccc(C#N)cc3)nc12    6.8
Cc1cc(/C=C/C#N)cc(C)c1-c1cc(F)cc2c(N)nc(Nc3ccc(C#N)nn3)nc12    3.8
Cc1cc(/C=C/C#N)cc(C)c1-c1cccc2cnc(Nc3ccc(C#N)cc3)nc12    6.2
Cc1cc(/C=C/C#N)cc(C)c1Nc1ccnc(Nc2ccc(C#N)cc2)n1 [Rilpivirine, reference compound]    1.3
Cc1cc(/C=C/C#N)cc(C)c1-c1cc(F)cc2cnc(Nc3ccc(C#N)cn3)nc12    12.7

Any idea what EC50 came out for COc1ccc(-c2c(C)cc(/C=C/C#N)cc2C)c2nc(Nc3ccc(C#N)cc3)nc(N)c12 on HIV-1 HBX2 (wild type)? 9.1

EC50 of N#C/C=C/c1cc(F)c(-c2cccc3cnc(Nc4ccc(C#N)cc4)nc23)c(F)c1 on HIV-1 HBX2 (wild type)? 1.5

====

Catalogue of EC50 values
# System: HIV-1 HBX2 (wild type)
# ASSAY NAME: High throughput cytopathic effect assay in MT-4 cells, wild type HIV-1
# Format: cell-based
# CONDITION DESCRIPTION: Human immunodeficiency virus 1, MT4, read-out: MT4 EC50 (nM) against w.t. assay 2
Report as a plain number; the unit nM is understood.

Worked set:
CC(C#N)=Cc1cc(C)c(-c2cccc3c(N)nc(Nc4ccc(C#N)cc4)nc23)c(C)c1 (racemic)    9.9
Cc1cc(/C=C/C#N)cc(C)c1-c1cc(F)cc2cnc(Nc3ccc(C#N)cc3)nc12    9.8
Cc1cc(/C=C/C#N)cc(C)c1-c1cccc2c(N)nc(Nc3ccc(C#N)nn3)nc12    4.2
Cc1cc(C#N)cnc1Nc1nc(N)c2cccc(-c3c(C)cc(/C=C/C#N)cc3C)c2n1    190
C/C(=C\C#N)c1cc(C)c(-c2cccc3c(N)nc(Nc4ccc(C#N)cc4)nc23)c(C)c1    7.9

# get_value(readout= EC50, system= HIV-1 HBX2 (wild type)) for COc1cc(Nc2nc(N)c3cccc(-c4c(C)cc(/C=C/C#N)cc4C)c3n2)ccc1C#N 12.9

Which measured EC50 belongs to CCc1cc(/C=C/C#N)cc(CC)c1-c1cccc2c(N)nc(Nc3ccc(C#N)cn3)nc12 , tested on HIV-1 HBX2 (wild type)? 10.5

# returns recorded EC50 (system: HIV-1 HBX2 (wild type)) for Cc1cc(/C=C/C#N)cc(C)c1-c1cccc2c(=O)[nH]c(Nc3ccc(C#N)cc3)nc12 9.5

For the record Cc1cc(/C=C/C#N)cc(C)c1-c1cccc2c(=O)[nH]c(Nc3ccc(C#N)cn3)nc12 , what value of EC50 is listed for HIV-1 HBX2 (wild type)? 3

Request body: readout EC50, system HIV-1 HBX2 (wild type), query C/C(=C/C#N)c1cc(C)c(-c2cccc3c(N)nc(Nc4ccc(C#N)cc4)nc23)c(C)c1 . Return the value. 8.9

Notebook entry, HIV-1 HBX2 (wild type) assay: EC50 of CNc1nc(Nc2ccc(C#N)cn2)nc2c(-c3c(C)cc(/C=C/C#N)cc3C)cccc12 = ? 8.6

Report EC50 for Cc1cc(Nc2nc(N)c3cccc(-c4c(C)cc(/C=C/C#N)cc4C)c3n2)nc(C)c1C#N tested on HIV-1 HBX2 (wild type). 33.2

State its EC50 on HIV-1 HBX2 (wild type): Cc1cc(/C=C/C#N)cc(C)c1-c1cc(Cl)cc2c(N)nc(Nc3ccc(C#N)cc3)nc12 29

What reported EC50 corresponds to Cc1cc(/C=C/C#N)cc(C)c1-c1cccc2c(N)nc(Nc3ccc(C#N)cn3)nc12 on HIV-1 HBX2 (wild type)? 3

What value of EC50 on HIV-1 HBX2 (wild type) does COc1cc(/C=C/C#N)cc(OC)c1-c1cccc2c(N)nc(Nc3ccc(C#N)cc3)nc12 have? 1.3

API: value(readout= EC50, system= HIV-1 HBX2 (wild type), query= CCCCNc1nc(Nc2ccc(C#N)cc2)nc2c(-c3c(C)cc(/C=C/C#N)cc3C)cccc12 ) 117

====

# Tested on: HIV-1 HBX2 (wild type)
# ASSAY NAME: High throughput cytopathic effect assay in MT-4 cells, wild type HIV-1
# Assay type: cell-based
# CONDITION DESCRIPTION: Human immunodeficiency virus 1, MT4, read-out: MT4 EC50 (nM) against w.t. assay 2
# Procedure: Compounds were screened in a miniaturized, high throughput cytopathic effect assay for activity against HIV-1 HBX2 (wild type) and HIV-1 reverse transcriptase mutants K103N and Y181C. In Tables 1 and 2 below. […] Ten-point serial dilutions of compounds with half-log step size were generated in DMSO. […] To measure the cytopathic effect of HIV, 40 μL Cell TiterGlo was added to each well and the resulting luminescence signal is read with the Envision plate reader (Perkin Elmer). […]
ENDPOINT: EC50 (nM)
Hi! Could you send only the number? It should be in nM, unit omitted.

COc1cc(-c2c(C)cc(/C=C/C#N)cc2C)c2nc(Nc3ccc(C#N)cn3)nc(N)c2c1 [Compound 24]    27.8

Please look up its EC50: COc1ccc(-c2c(C)cc(/C=C/C#N)cc2C)c2nc(Nc3ccc(C#N)cn3)nc(N)c12 [Compound 29] 18.6

For O=C1Nc2ccc(Cl)cc2[C@@](C#CC2CC2)(C(F)(F)F)O1 [Efavirenz, reference compound] , what is its reported EC50? 1.6

Data request, read-out EC50, for Cc1cc(/C=C/C#N)cc(C)c1-c1cccc2c(N)nc(Nc3ccc(C#N)c(C)n3)nc12 [Compound 16] 7.5
